tested on: influenza virus A/New Caledonia (H1); assay: Virus neutralization assay (VNA) on Calu-3 cells; format: cell-based, influenza A virus H1N1 A/New Caledonia/20/1999; conditions: Calu-3 cells, 5 TCID50/50 μL virus, 4 days, NP ELISA readout
VNA_H1_NCa_Calu3 pIC50 reference
Please reply with the number alone, leaving off any unit.

Worked examples follow.
CSCC[C@@H]1NC(=O)CNC(=O)CNC(=O)[C@H](C)NC(=O)[C@H](C(C)C)NC(=O)CNC(=O)[C@H](CC(C)C)NC(=O)[C@@H]2CCCN2C(=O)[C@H](CC(=O)O)NC(=O)[C@H](CCC(=O)O)NC(=O)[C@H](Cc2ccc(O)cc2)NC(=O)[C@H](CC(C)C)NC(=O)[C@@H]2CCCN2C(=O)[C@H]2CCCN2C(=O)CNC1=O = 4.6
CSCC[C@@H]1NC(=O)CNC(=O)CNC(=O)[C@H](C)NC(=O)[C@H](C(C)C)NC(=O)CNC(=O)[C@H](CC(C)C)NC(=O)[C@@H]2CCCN2C(=O)[C@H](CC(=O)O)NC(=O)[C@H](CCCNC(=N)N)NC(=O)[C@H](Cc2ccc(O)cc2)NC(=O)[C@H](CC(C)C)NC(=O)[C@@H](NC(=O)CCC(=O)O)CSSC[C@@H](C(N)=O)NC(=O)CNC1=O = 6.0

Field: next molecule
Q: So what does the record say about VNA_H1_NCa_Calu3 pIC50 for `CSCC[C@@H]1NC(=O)CNC(=O)CNC(=O)[C@H](C)NC(=O)[C@H](C(C)C)NC(=O)CNC(=O)[C@H](CC(C)C)NC(=O)[C@@H]2CCCN2C(=O)[C@H](CC(=O)O)NC(=O)[C@H](CCC(=O)O)NC(=O)[C@H](Cc2ccc(O)cc2)NC(=O)[C@H](CC(C)C)NC(=O)CNC(=O)[C@H]2CCCN2C(=O)CNC1=O` ?
A: 5.7
